Test system: Mycobacterium smegmatis ATCC 19420
TEST NAME: Broth microdilution MIC, M. smegmatis
Assay type: cell-based
CONDITIONS: Mycolicibacterium smegmatis, ATCC19420, M. smegmatis ATCC 19420; read-out: MIC Mycobacterium smegmatis ATCC 19420
PROPERTY MEASURED: MIC (µg/mL)

>  <COMPOUND>
COc1cccc(NC(=O)C(Cc2ccccc2)NC(=O)c2cccs2)c1C (centres unmarked)

>  <PROPERTY MEASURED>
MIC

>  <DATA VALUE>
0.78

$$$$
>  <COMPOUND>
Cc1ccc(F)cc1NC(=O)C(Cc1ccccc1)NC(=O)c1ccccc1 (centres unmarked)

>  <PROPERTY MEASURED>
MIC

>  <DATA VALUE>
0.195

$$$$
>  <COMPOUND>
NC1CCN(c2ccc(F)cc2NC(=O)C(Cc2ccccc2)NC(=O)c2ccccc2F)C1 (centres unmarked)

>  <PROPERTY MEASURED>
MIC

>  <DATA VALUE>
0.78

$$$$
>  <COMPOUND>
COc1ccccc1NC(=O)C(Cc1ccccc1)NC(=O)c1ccccc1Cl (centres unmarked)

>  <PROPERTY MEASURED>
MIC

>  <DATA VALUE>
0.39

$$$$
>  <COMPOUND>
O=C(NC(Cc1ccccc1)C(=O)Nc1ccccc1N1CCCC1)c1ccccc1 (centres unmarked)

>  <PROPERTY MEASURED>
MIC

>  <DATA VALUE>
0.78

$$$$
